Hello, the source for this data is patent US20260108607A1, in case you need it.

Readings of koff for the listed binders
target_or_test_system: T1, EGFRvIII target antigen (SPR ligand) (UniProt P00533 25-645, limits assumed)
T1 construct: also called EGFRvIII antigen
experiment: SPR; antibody as analyte
readout: koff (s⁻¹)

| binder | readout | value |
| --- | --- | --- |
| humanized antibody 28-H9 (84C3G8H7-VH4 + VL1(PTM)) (scFv, the format in the SPR assay is not clearly stated) scFv: QVQLVQSGAEVKKPGASVKVSCKASGFNIKDYYMHWVKQAPGQRLEWIGWIDPENGNTIYDPKFQGRATITADTSANTAYMELSSLRSEDTAVYYCARGWFAYWGQGTLVTVSSGGGGSGGGGSGGGGSGGGGSDIVMTQSPDSLAVSLGERATINCKSSQSLLNSSNQKNHLAWYQQKPGQPPKLLIYFASTRGSGVPDRFSGSGSGTDFTLTISSLQAEDVAVYYCQQHYSTPLTFGGGTKLELK | koff | 0.00665 |
| humanized antibody 28-H8 (84C3G8H7-VH3 + VL2(PTM)) (scFv, the format in the SPR assay is not clearly stated) scFv: QVQLVQSGAEVKKPGASVKVSCKASGFNIKDYYMHWVRQAPGQRLEWIGWIDPENGNTIYDPKFQGRATITADTSASTAYMELSSLRSEDTAVYYCARGWFAYWGQGTLVTVSSGGGGSGGGGSGGGGSGGGGSDIVMTQSPDSLAVSLGERATINCKSSQSLLNSSNQKNHLAWYQQKPGQPPKLLVYFASTRGSGVPDRFSGSGSGTDFTLTISSLQAEDVAVYFCQQHYSTPLTFGGGTKLELK | koff | 0.0103 |
| humanized antibody 28-H7 (84C3G8H7-VH3 + VL1(PTM)) (scFv, the format in the SPR assay is not clearly stated) scFv: QVQLVQSGAEVKKPGASVKVSCKASGFNIKDYYMHWVRQAPGQRLEWIGWIDPENGNTIYDPKFQGRATITADTSASTAYMELSSLRSEDTAVYYCARGWFAYWGQGTLVTVSSGGGGSGGGGSGGGGSGGGGSDIVMTQSPDSLAVSLGERATINCKSSQSLLNSSNQKNHLAWYQQKPGQPPKLLIYFASTRGSGVPDRFSGSGSGTDFTLTISSLQAEDVAVYYCQQHYSTPLTFGGGTKLELK | koff | 0.0112 |
| humanized antibody 28-H3 (84C3G8H7-VH3 + VL1) (scFv, the format in the SPR assay is not clearly stated) scFv: QVQLVQSGAEVKKPGASVKVSCKASGFNIKDYYMHWVRQAPGQRLEWIGWIDPENGNTIYDPKFQGRATITADTSASTAYMELSSLRSEDTAVYYCARGWFAYWGQGTLVTVSSGGGGSGGGGSGGGGSGGGGSDIVMTQSPDSLAVSLGERATINCKSSQSLLNSSNQKNHLAWYQQKPGQPPKLLIYFASTRASGVPDRFSGSGSGTDFTLTISSLQAEDVAVYYCQQHYSTPLTFGGGTKLELK | koff | 0.0221 |
| humanized antibody 28-H4 (84C3G8H7-VH3 + VL2) (scFv, the format in the SPR assay is not clearly stated) scFv: QVQLVQSGAEVKKPGASVKVSCKASGFNIKDYYMHWVRQAPGQRLEWIGWIDPENGNTIYDPKFQGRATITADTSASTAYMELSSLRSEDTAVYYCARGWFAYWGQGTLVTVSSGGGGSGGGGSGGGGSGGGGSDIVMTQSPDSLAVSLGERATINCKSSQSLLNSSNQKNHLAWYQQKPGQPPKLLVYFASTRASGVPDRFSGSGSGTDFTLTISSLQAEDVAVYFCQQHYSTPLTFGGGTKLELK | koff | 0.0206 |
| humanized antibody 28-H5 (84C3G8H7-VH4 + VL1) (scFv, the format in the SPR assay is not clearly stated) scFv: QVQLVQSGAEVKKPGASVKVSCKASGFNIKDYYMHWVKQAPGQRLEWIGWIDPENGNTIYDPKFQGRATITADTSANTAYMELSSLRSEDTAVYYCARGWFAYWGQGTLVTVSSGGGGSGGGGSGGGGSGGGGSDIVMTQSPDSLAVSLGERATINCKSSQSLLNSSNQKNHLAWYQQKPGQPPKLLIYFASTRASGVPDRFSGSGSGTDFTLTISSLQAEDVAVYYCQQHYSTPLTFGGGTKLELK | koff | 0.00891 |
